Test system: CX-1 (human colon carcinoma) and CV-1 (normal monkey epithelial cells)
protocol_description: clonogenic in vitro selectivity, IC50 for CV-1 divided by IC50 for CX-1
Format: cell-based
reported_conditions: selectivity: IC50 value for CV-1 divided by value for CX-1
measured_quantity: S
// response body must contain only the number

Examples with their reported S follow.
compound | assay_value
CCN1C(=CC(=Cc2sc3ccccc3[n+]2C)SC)Sc2ccccc21 [compound 6] | 37.5
CCCN1C(=CC=Cc2sc3ccccc3[n+]2CCC)Sc2ccccc21 [compound 5] | 22
CCN1C(=CC=c2sc(=Cc3sc4c([n+]3CC)CCCC4)n(CC)c2=O)Oc2ccccc21 [compound 4] | 100

Please find the next compound below.
Entry CCC(=Cc1oc2ccccc2[n+]1CC)C=C1Sc2ccccc2N1CC [compound 7] ; S = 33.3
